assay: self-splicing fitness, log relative to wild type (ln ratio); higher = more splicing; Tetrahymena group I intron in knt gene, E. coli kanamycin selection, DiMSum; sequences stand for … in CUCUCU…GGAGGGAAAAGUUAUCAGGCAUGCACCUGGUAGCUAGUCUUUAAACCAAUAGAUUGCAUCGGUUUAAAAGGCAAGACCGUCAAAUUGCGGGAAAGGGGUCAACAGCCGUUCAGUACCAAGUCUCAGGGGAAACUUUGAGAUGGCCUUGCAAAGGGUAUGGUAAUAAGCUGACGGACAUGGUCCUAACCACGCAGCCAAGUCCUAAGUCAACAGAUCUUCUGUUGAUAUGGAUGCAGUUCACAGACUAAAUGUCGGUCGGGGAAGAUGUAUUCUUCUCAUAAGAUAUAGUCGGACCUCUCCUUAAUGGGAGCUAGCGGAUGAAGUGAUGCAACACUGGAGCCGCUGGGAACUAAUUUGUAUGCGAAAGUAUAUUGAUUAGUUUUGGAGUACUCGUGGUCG; details: 37 °C;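 further: selection with 25 µg/mL kanamycin versus none on LB agar overnight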
measured-metric: self-splicing fitness (ln)

Prompt line: Requested read-out: self-splicing fitness (ln). Entry: AAGGAGCAAUAUUACGCACU
Response line: -0.454

Prompt line: Requested read-out: self-splicing fitness (ln). Entry: UCGAAGCAAUAUUACGUGGA
Response line: -2.46

Prompt line: Requested read-out: self-splicing fitness (ln). Entry: UUACAGCAAUAUUACGUUUA
Response line: -0.512

Prompt line: Requested read-out: self-splicing fitness (ln). Entry: CACAAGCAAUAUUACGGAAG
Response line: -0.887

Prompt line: Requested read-out: self-splicing fitness (ln). Entry: CAACAGCAAUAUUACGACGA
Response line: 0.0703

Prompt line: Requested read-out: self-splicing fitness (ln). Entry: CCCAAGCAAUAUUACGCUUG
Response line: -1.92

Prompt line: Requested read-out: self-splicing fitness (ln). Entry: CGCCAGCAAUAUUACGCACU
Response line: -1.47

Prompt line: Requested read-out: self-splicing fitness (ln). Entry: UAAGAGCAAUAUUACGUCGC
Response line: -3.39

Prompt line: Requested read-out: self-splicing fitness (ln). Entry: AUUAAGCAAUAUUACGAGUA
Response line: -1.49

Prompt line: Requested read-out: self-splicing fitness (ln). Entry: CAAUAGCAAUAUUACGCGAC
Response line: -2.54

Prompt line: Requested read-out: self-splicing fitness (ln). Entry: GUGGAGCAAUAUUACGUGCA
Response line: -1.17

Prompt line: Requested read-out: self-splicing fitness (ln). Entry: AGCAAGCAAUAUUACGGCCG
Response line: -0.111

Prompt line: Requested read-out: self-splicing fitness (ln). Entry: CAUCAGCAAUAUUACGGUGU
Response line: -1.77

Prompt line: Requested read-out: self-splicing fitness (ln). Entry: CCCCAGCAAUAUUACGCAAG
Response line: -2.28

Prompt line: Requested read-out: self-splicing fitness (ln). Entry: AGUGAGCAAUAUUACGUAGA
Response line: -3.38

Prompt line: Requested read-out: self-splicing fitness (ln). Entry: AGCAAGCAAUAUUACGCGUG
Response line: -3.49

Prompt line: Requested read-out: self-splicing fitness (ln). Entry: CGUUAGCAAUAUUACGGUAU
Response line: -2.2

Prompt line: Requested read-out: self-splicing fitness (ln). Entry: AGCUAGCAAUAUUACGUAAC
Response line: -0.993

Prompt line: Requested read-out: self-splicing fitness (ln). Entry: UAGUAGCAAUAUUACGCGCU
Response line: -0.161

Prompt line: Requested read-out: self-splicing fitness (ln). Entry: CCCAAGCAAUAUUACGUAGU
Response line: -1.93

Prompt line: Requested read-out: self-splicing fitness (ln). Entry: UAGUAGCAAUAUUACGUCGC
Response line: -2.3

Prompt line: Requested read-out: self-splicing fitness (ln). Entry: CGCCAGCAAUAUUACGUUAU
Response line: -2.22

Prompt line: Requested read-out: self-splicing fitness (ln). Entry: AAGAAGCAAUAUUACGUACC
Response line: 0.219

Prompt line: Requested read-out: self-splicing fitness (ln). Entry: GAAGAGCAAUAUUACGGAAC
Response line: -0.903

Prompt line: Requested read-out: self-splicing fitness (ln). Entry: UGUGAGCAAUAUUACGGUGG
Response line: -3.01

Prompt line: Requested read-out: self-splicing fitness (ln). Entry: CGCCAGCAAUAUUACGGCCC
Response line: -0.207

Prompt line: Requested read-out: self-splicing fitness (ln). Entry: ACGGAGCAAUAUUACGAGGA
Response line: -2.92

Prompt line: Requested read-out: self-splicing fitness (ln). Entry: UCUGAGCAAUAUUACGGGCG
Response line: -2.56

Prompt line: Requested read-out: self-splicing fitness (ln). Entry: UCGAAGCAAUAUUACGGAUG
Response line: -1.68

Prompt line: Requested read-out: self-splicing fitness (ln). Entry: GUCUAGCAAUAUUACGUAAU
Response line: 0.597

Prompt line: Requested read-out: self-splicing fitness (ln). Entry: AGAAAGCAAUAUUACGUAAA
Response line: -1.88

Prompt line: Requested read-out: self-splicing fitness (ln). Entry: GAAGAGCAAUAUUACGAGCG
Response line: -0.882

Prompt line: Requested read-out: self-splicing fitness (ln). Entry: CCCGAGCAAUAUUACGCAGU
Response line: -2.64

Prompt line: Requested read-out: self-splicing fitness (ln). Entry: GACAAGCAAUAUUACGCGUU
Response line: -3

Prompt line: Requested read-out: self-splicing fitness (ln). Entry: CCAAAGCAAUAUUACGUUUU
Response line: -2.75

Prompt line: Requested read-out: self-splicing fitness (ln). Entry: AGGUAGCAAUAUUACGGGCG
Response line: -0.573

Prompt line: Requested read-out: self-splicing fitness (ln). Entry: UGCUAGCAAUAUUACGAUGU
Response line: -2.59

Prompt line: Requested read-out: self-splicing fitness (ln). Entry: CUGGAGCAAUAUUACGGAAG
Response line: -1.45

Prompt line: Requested read-out: self-splicing fitness (ln). Entry: GGCAAGCAAUAUUACGAUCC
Response line: -0.615

Prompt line: Requested read-out: self-splicing fitness (ln). Entry: AUGCAGCAAUAUUACGUAGC
Response line: -2.34

Prompt line: Requested read-out: self-splicing fitness (ln). Entry: CGGUAGCAAUAUUACGACUC
Response line: 1.23

Prompt line: Requested read-out: self-splicing fitness (ln). Entry: AGGCAGCAAUAUUACGCGAA
Response line: -0.675

Prompt line: Requested read-out: self-splicing fitness (ln). Entry: CUACAGCAAUAUUACGUCUA
Response line: -3.04

Prompt line: Requested read-out: self-splicing fitness (ln). Entry: UCCUAGCAAUAUUACGUGUU
Response line: -2.94

Prompt line: Requested read-out: self-splicing fitness (ln). Entry: CCUCAGCAAUAUUACGUGCA
Response line: -2.32

Prompt line: Requested read-out: self-splicing fitness (ln). Entry: CCUCAGCAAUAUUACGUUUA
Response line: -2.57

Prompt line: Requested read-out: self-splicing fitness (ln). Entry: GAACAGCAAUAUUACGACAA
Response line: -0.239

Prompt line: Requested read-out: self-splicing fitness (ln). Entry: AAUUAGCAAUAUUACGCCCG
Response line: 0.376

Prompt line: Requested read-out: self-splicing fitness (ln). Entry: CGUAAGCAAUAUUACGCCCA
Response line: -0.135

Prompt line: Requested read-out: self-splicing fitness (ln). Entry: UCGCAGCAAUAUUACGCAGA
Response line: -0.987

Prompt line: Requested read-out: self-splicing fitness (ln). Entry: CUGAAGCAAUAUUACGAAAA
Response line: -2.59

Prompt line: Requested read-out: self-splicing fitness (ln). Entry: GACUAGCAAUAUUACGGCUU
Response line: 0.0615

Prompt line: Requested read-out: self-splicing fitness (ln). Entry: CAUCAGCAAUAUUACGGAAU
Response line: -2.11

Prompt line: Requested read-out: self-splicing fitness (ln). Entry: ACUAAGCAAUAUUACGAGAA
Response line: -2.37

Prompt line: Requested read-out: self-splicing fitness (ln). Entry: ACAGAGCAAUAUUACGGGAG
Response line: -1.62

Prompt line: Requested read-out: self-splicing fitness (ln). Entry: GCAAAGCAAUAUUACGCCCC
Response line: -0.135

Prompt line: Requested read-out: self-splicing fitness (ln). Entry: UCCCAGCAAUAUUACGACGG
Response line: -2.15

Prompt line: Requested read-out: self-splicing fitness (ln). Entry: UUAAAGCAAUAUUACGACCA
Response line: 0.312

Prompt line: Requested read-out: self-splicing fitness (ln). Entry: CAGGAGCAAUAUUACGUUGA
Response line: -3.85

Prompt line: Requested read-out: self-splicing fitness (ln). Entry: UUCUAGCAAUAUUACGAUAA
Response line: -0.147

Prompt line: Requested read-out: self-splicing fitness (ln). Entry: GGGUAGCAAUAUUACGCUCG
Response line: -0.258
